biological target: human MC3R (human, UniProt P41968 1-323); assay: cell-based or functional assay
Sequence (P41968 whole entry): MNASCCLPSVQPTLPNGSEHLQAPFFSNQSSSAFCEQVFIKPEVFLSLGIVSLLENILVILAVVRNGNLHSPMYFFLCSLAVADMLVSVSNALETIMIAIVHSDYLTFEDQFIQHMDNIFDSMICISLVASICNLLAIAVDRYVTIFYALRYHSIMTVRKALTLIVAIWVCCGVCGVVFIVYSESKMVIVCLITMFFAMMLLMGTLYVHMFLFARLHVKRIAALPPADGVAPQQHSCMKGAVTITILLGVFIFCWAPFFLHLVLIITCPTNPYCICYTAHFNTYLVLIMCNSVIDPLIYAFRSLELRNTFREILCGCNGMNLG
Non-standard residues stand in square brackets, D forms with d. PKcap1 = N-terminal cap C18 diacid-γGlu-mPEG2; Nle = CCCC[C@H](N)C(=O)O; R1 = not defined here
Consider the following binders; for each one, report its MC3R selectivity (relative to MC4R).
Give bare numbers.

Please review the entries below; each comes with its answer.
INSERT INTO assay_data (binder, value_type, assay_result) VALUES
  ('H-YV[Nle]GH[dF]R[dW]D-NH2 (SMILES CCCC[C@H](NC(=O)[C@@H](NC(=O)[C@@H](N)Cc1ccc(O)cc1)C(C)C)C(=O)NCC(=O)N[C@@H](Cc1c[nH]cn1)C(=O)N[C@H](Cc1ccccc1)C(=O)N[C@@H](CCCNC(=N)N)C(=O)N[C@H](Cc1c[nH]c2ccccc12)C(=O)N[C@@H](CC(=O)O)C(N)=O) [CTX-1107]', 'MC3R selectivity (relative to MC4R)', 2.4),
  ('R1-V[Nle][dA]HFR[dW]DRFG-OH (reading uncertain) [CTX-1149 (R1, SEQ ID NO 66)]', 'MC3R selectivity (relative to MC4R)', 6800),
  ('H-YV[Nle][dF]HFR[dW]D-NH2 (SMILES CCCC[C@H](NC(=O)[C@@H](NC(=O)[C@@H](N)Cc1ccc(O)cc1)C(C)C)C(=O)N[C@H](Cc1ccccc1)C(=O)N[C@@H](Cc1c[nH]cn1)C(=O)N[C@@H](Cc1ccccc1)C(=O)N[C@@H](CCCNC(=N)N)C(=O)N[C@H](Cc1c[nH]c2ccccc12)C(=O)N[C@@H](CC(=O)O)C(N)=O) [CTX-1132]', 'MC3R selectivity (relative to MC4R)', 6.8);

Need MC3R selectivity (relative to MC4R) for each of these binders.
1. YVXAHFRWDRFG (Nle at 3; D-Ala at 4; D-Trp at 8; D-Phe at 11) [CTX-1127]
2. PKcap1-G[dY]V[Nle][dA]HFR[dW]D[dR]FG-OH [CTX-1155]

Result:
95
415

Data origin: patent US20240287154A1
